Reference source: patent US20210032312A1

- study.system: T1, cynomolgus monkey CD8 alpha on primary cynomolgus CD8+ T cells (cynomolgus monkey, UniProt P01732 23-235 (human entry))
- T1 construct: also called Cyno CD8alpha; cyno CD8A
- T1 sequence (P01732 other isoform, or with tags, fused parts or gaps limits assumed): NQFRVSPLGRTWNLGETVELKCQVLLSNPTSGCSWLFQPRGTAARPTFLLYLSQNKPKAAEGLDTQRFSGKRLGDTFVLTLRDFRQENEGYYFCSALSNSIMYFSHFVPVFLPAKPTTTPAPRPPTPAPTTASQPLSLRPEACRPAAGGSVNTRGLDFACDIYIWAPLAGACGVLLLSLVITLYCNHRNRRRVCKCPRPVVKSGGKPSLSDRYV
- experiment.summary: flow cytometry, cyno CD8+ T cells
observed.property: Cyno T-cell Binding 2 uM (MFI)
The response must be a number in MFI with no trailing unit.

[[record]]
binder = "P283DR9P1364_H6 (designed binder, FN3 domain) LPAPKNLVVSRVTEDSARLSWTAPDAAFDSFIIAYPETPVRGEAIVLTVPGSERSYDLTGLKPGTEYFVIIIGVKGGQESFPLSAIFTT"
observed_property = "Cyno T-cell Binding 2 uM (MFI)"
unit_of_measurement = "MFI"
test_value = 6000

[[record]]
binder = "P283ER9P1365_H3 (designed binder, FN3 domain) LPAPKNLVVSRVTEDSARLSWTAPDAAFDSFYIPYRESEFRGEAIALPVPGSERSYDLTGLKPGTKYRVIIIGVKGGEFSQPLSAIFTT"
observed_property = "Cyno T-cell Binding 2 uM (MFI)"
unit_of_measurement = "MFI"
test_value = 19600


Quick check: Cyno T-cell Binding 2 uM (MFI) of P283FR9P1366_D12 (designed binder, FN3 domain) LPAPKNLVVSRVTEDSARLSWTAPDAAFDSFDIAYPEWPLGGEAIVLTVPGSERSYDLTGLKPGTEYWVIILGVKGGDQSWPLSAIFTT ?
87600

Which value of Cyno T-cell Binding 2 uM (MFI) has been reported for P283FR9P1366_D7 (designed binder, FN3 domain) LPAPKNLVVSRVTEDSARLSWTAPDAAFDSFSIAYPELPVKGEAIVLTVPGSERSYDLTGLKPGTEYFVVIWGVKGGTYSGPLSAIFTT in the records?
41400

Look up Cyno T-cell Binding 2 uM (MFI) for this binder: P283ER9P1365_G3 (designed binder, FN3 domain) LPAPKNLVVSRVTEDSARLSWTAPDAAFDSFGISYYEWAPNGEAIQLSVPGSERSYDLTGLKPGTEYHVVIIGVKGGEPSHPLGAIFTT
3480

Give its Cyno T-cell Binding 2 uM (MFI) value. Item: P283GR7P1367_E5 (designed binder, FN3 domain) LPAPKNLVVSRVTEDSARLSWTAPDAAFDSFEIWYHEYHPRGEAIVLTVPGSERSYDLTGLKPGTEYDVVISGVKGGHWSYPLSAIFTT
3190

# Cyno T-cell Binding 2 uM (MFI) lookup, item P283FR9P1366_C6 (designed binder, FN3 domain) LPAPKNLVVSRVTEDSARLSWTAPDAAFDSFSIAYPEWPVYGEAIVLTVPGSERSYDLTGLKPGTEYFVVIYGVKGGNYSDPLSAIFTT
26200

Give its Cyno T-cell Binding 2 uM (MFI) value. Item: P283GR7P1367_G8 (designed binder, FN3 domain) LPAPKNLVVSRVTEDSARLSWTAPDAAFDSFYIAYPEYVWGGEATSLGEAIVLTVPGSERSYDLTGLKPGTEYFVVITGVKGGLGSYPLSAIFTT
21000

Name the reported Cyno T-cell Binding 2 uM (MFI) value associated with the binder P283ER9P1365_B6 (designed binder, FN3 domain) LPAPKNLVVSRVTEDSARLSWTAPDAAFDSFGIGYAEPVVTGEAISLSVPGSERSYDLTGLKPGTEYWVVIIGVKGGINSYPLGAIFTT
30100

# Cyno T-cell Binding 2 uM (MFI) lookup, item P283GR7P1367_H9 (designed binder, FN3 domain) LPAPKNLVVSRVTEDSARLSWTAPDAAFDSFDIAYPEWPTDGEAIVLTVPGSERSYDLTGLKPGTEYFVVIYGVKGGGRSAPLSAIFTT
6120

Look at this binder and give its reported Cyno T-cell Binding 2 uM (MFI). P283HR7P1368_H8 (designed binder, FN3 domain) LPAPKNLVVSRVTEDSARLSWTAPDAAFDSFGITYLDPRNGEAISLNVPGSERSYDLTGLKPGTEYWVVIIGVKGGINSYPLGASFTT
35900

GET /values?readout=Cyno T-cell Binding 2 uM (MFI)&item= P283FR9P1366_H10 (designed binder, FN3 domain) LPAPKNLVVSRVTEDSARLSWTAPDAAFDSFNIAYPEWPPEGEAIVLTVPGSERSYDLTGLKPGTEYFVVIYGVKGGHLSDPLSAIFTT
75200

Could you share which Cyno T-cell Binding 2 uM (MFI) value was measured for P283FR9P1366_F5 (designed binder, FN3 domain) LPAPKNLVVSRVTEDSARLSWTAPDAAFDSFDIGYPEWPIKGEAIVLTVPGSERSYDLTGLKPGTEYWVIIWGVKGGDRSEPLSAIFTT ?
46400

Data request, read-out Cyno T-cell Binding 2 uM (MFI), for P283DR9P1364_B4 (designed binder, FN3 domain) LPAPKNLVVSRVTEDSARLSWTAPDAAFDSFAISYPEWPPPGEAIVLTVPGSERSYDLTGLKPGTEYWVIILGVKGGDQSWPLSAIFTT
96500

Which value of Cyno T-cell Binding 2 uM (MFI) has been reported for P283HR7P1368_D2 (designed binder, FN3 domain) LPAPKNLVVSRVTEDSARLSWTAPDAAFNSFGIGYAEPAVTGEAISLSVPGSERSYDLTGLKPGTEYWVVIIGVKGGINSYPLGASFTT in the records?
11100

Which measured Cyno T-cell Binding 2 uM (MFI) value corresponds to P283FR9P1366_G8 (designed binder, FN3 domain) LPAPKNLVVSRVTEDSARLSWTAPDAAFDSFDIAYPELPIGGEAIVLTVPGSERSYDLTGLKPGTEYFVVIYGVKGGIHSAPLSAIFTT ?
37100

I have this binder here, P283HR7P1368_G1 (designed binder, FN3 domain) LPAPKNLVVSRVTEDSARLSWTAPDAAFDSFLITYWEIEPEGEAIFLGVPGSERSYDLTGLKPGTEYRVQINGVKGGTISYPLFAGFTT , and I need its recorded Cyno T-cell Binding 2 uM (MFI).
69800

# lookup: Cyno T-cell Binding 2 uM (MFI) of P283DR9P1364_D9 (designed binder, FN3 domain) LPAPKNLVVSRVTEDSARLSWTAPDAAFDSFGISYPEWPPLGEAIVLTVPGSERSYDLTGLKPGTEYWVIIFGVKGGERSWPLSAIFTT
88300
